Method notes: qHTS screen for small molecules that inhibit ELG1-dependent DNA repair in human embryonic kidney (HEK293T) cells expressing luciferase-tagged ELG1; further: nearly all actives have a fitted effect of over 55% in size
Assay setup: HEK293T ELG1-luciferase reporter, luminescence, 16 h, DNA damage induced by 5-fluorouridine; series mostly up to 46.1 µM
Among all 330,000 compounds or so, about 7,700 (2.3%) were called active. Not shown: some 26% with an inconclusive outcome. The sample as a whole holds a higher share of actives than the screen did.

[
  {
    "Compound": "Cc1cccc(N(Cc2ccccc2)C(=O)c2ccccc2F)c1",
    "outcome": "inactive"
  },
  {
    "Compound": "Cc1ccc(S(=O)(=O)N2CCC(C(=O)OCC(=O)N(C)c3ccccc3)CC2)cc1C",
    "outcome": "inactive"
  },
  {
    "Compound": "Cc1cccc(-c2nc3ccccc3c(=O)n2NC(=O)Cc2ccc(Cl)cc2)c1",
    "outcome": "inactive"
  },
  {
    "Compound": "CCOC(=O)C1CCN(Cc2c(C(=O)N3CCOCC3)nc3c(C)cccn23)CC1",
    "outcome": "inactive"
  },
  {
    "Compound": "Cc1cccn2c(CNCC(C)Oc3cccnc3)c(C(=O)N3CCOCC3)nc12 (stereo not given)",
    "outcome": "inactive"
  }
]

* * *

Method notes: qHTS screen for small molecules that inhibit ELG1-dependent DNA repair in human embryonic kidney (HEK293T) cells expressing luciferase-tagged ELG1; further: nearly all actives have a fitted effect of over 55% in size; further: potency means the concentration at half of the fitted maximal effect
Assay setup: HEK293T ELG1-luciferase reporter, luminescence, 16 h, DNA damage induced by 5-fluorouridine; series mostly up to 46.1 µM
Hit rate of the full screen: of about 330,000 compounds, about 7,700 (2.3%) were called active. Roughly 26% stayed inconclusive and do not appear here. This excerpt belongs to a sample that is enriched for actives.
Reported property: Potency

[
  {
    "Chemical string": "O=C(NCc1ccccc1)c1ccc(S(=O)(=O)Nc2cccc(C(F)(F)F)c2)cc1",
    "Reported property": "Potency",
    "Result": "13 µM (active)"
  },
  {
    "Chemical string": "O=C(NCC1(N2CCCCC2)CCCCC1)c1ccc(NS(=O)(=O)c2ccc(F)cc2)cc1",
    "Reported property": "Potency",
    "Result": "inactive"
  },
  {
    "Chemical string": "O=C1C=C(c2ccnc3cc(Cl)ccc23)C[C@@H](c2ccc3c(c2)OCO3)C1",
    "Reported property": "Potency",
    "Result": "inactive"
  },
  {
    "Chemical string": "CCc1ccc(NC(=O)CN2C(=O)COc3ccc(S(=O)(=O)N4CCCC4)cc32)cc1",
    "Reported property": "Potency",
    "Result": "inactive"
  },
  {
    "Chemical string": "COc1ccccc1NC(=O)COC(=O)CNC(=O)C1CCCCC1",
    "Reported property": "Potency",
    "Result": "inactive"
  }
]

* * *

Method notes: qHTS screen for small molecules that inhibit ELG1-dependent DNA repair in human embryonic kidney (HEK293T) cells expressing luciferase-tagged ELG1; further: nearly all actives have a fitted effect of over 55% in size
Assay setup: HEK293T ELG1-luciferase reporter, luminescence, 16 h, DNA damage induced by 5-fluorouridine; series mostly up to 46.1 µM
In all, about 330,000 compounds went through this assay and about 7,700 (2.3%) were called active. Another 26% or so got no clear call; they are omitted. Calls follow the shape of the dose curve; as a rule, active = well fitted inhibition curve with a large enough effect; inconclusive = small, poorly fitted or top-dose-only effect, or effect the other way; inactive = flat fitted curve, though single readings scatter. For the sample, actives were picked, then their nearest neighbours and some compounds at random.
Possible outcomes: True = active, False = inactive

[
  {
    "Compound": "OC(COc1ccccc1)Cn1cc(Br)cn1 (stereo not drawn)",
    "Class assignment": "False"
  },
  {
    "Compound": "COc1cc(NS(=O)(=O)c2ccccc2)ccc1-n1nc(C)cc1C",
    "Class assignment": "False"
  },
  {
    "Compound": "COc1cc(C(=O)NCC(=O)N2CC=C(c3ccccc3)CC2)cc(OC)c1OC",
    "Class assignment": "False"
  },
  {
    "Compound": "N#Cc1c(NC(=O)CCCN2C(=O)c3ccccc3C2=O)oc(-c2ccccc2)c1-c1ccccc1",
    "Class assignment": "True"
  },
  {
    "Compound": "Cc1ccc(S(=O)(=O)NCC(=O)N2CCN(c3ccccn3)CC2)cc1",
    "Class assignment": "False"
  },
  {
    "Compound": "COc1cccc(N(CC(=O)Nc2cccc(F)c2)S(C)(=O)=O)c1",
    "Class assignment": "False"
  },
  {
    "Compound": "Cc1onc(-c2ccc(Cl)cc2)c1-c1ccnn1S(=O)(=O)c1ccc(Cl)cc1",
    "Class assignment": "True"
  },
  {
    "Compound": "CCc1cc2c(NC(Cc3ccccc3)C(=O)O)ncnc2s1 (stereo not drawn)",
    "Class assignment": "False"
  },
  {
    "Compound": "Cc1ccc(-c2nc(-c3cccnc3)sc2CC(=O)Nc2ccc(C)c(Cl)c2)cc1",
    "Class assignment": "True"
  },
  {
    "Compound": "Cc1cc(C)cc(NC(=O)CCN2C(=O)c3ccccc3C2=O)c1",
    "Class assignment": "False"
  },
  {
    "Compound": "CC(Oc1ccccc1)C(=O)Nc1oc(-c2ccco2)c(-c2ccco2)c1C#N (stereo not drawn)",
    "Class assignment": "False"
  },
  {
    "Compound": "CCc1cc2c(NC3CCCC3)ncnc2s1",
    "Class assignment": "False"
  },
  {
    "Compound": "O=C(Nc1ccc(Br)cn1)C1CCN(S(=O)(=O)c2cccs2)CC1",
    "Class assignment": "True"
  },
  {
    "Compound": "O=C(CCN1C(=O)c2ccccc2C1=O)Nc1ccncc1",
    "Class assignment": "False"
  },
  {
    "Compound": "CN(CC(=O)Nc1ccc(OC(F)(F)F)cc1)C(=O)C1CCC1",
    "Class assignment": "False"
  },
  {
    "Compound": "CC1CN(C(=O)c2ccc([N+](=O)[O-])s2)CC(C)O1 (stereo not drawn)",
    "Class assignment": "False"
  },
  {
    "Compound": "COc1cc(/C=C/C(=O)OCC(=O)c2ccccc2)cc(OC)c1OC",
    "Class assignment": "False"
  },
  {
    "Compound": "CCc1cc2c(N3CCN(c4nnc(CC)s4)CC3)ncnc2s1",
    "Class assignment": "True"
  },
  {
    "Compound": "Cc1cc(C)c(NC(=O)CS(=O)CC(=O)Nc2cccnc2)c(C)c1 (stereo not drawn)",
    "Class assignment": "False"
  },
  {
    "Compound": "COc1cccc(/C=N/Nc2ncc(C(F)(F)F)cc2Cl)c1O",
    "Class assignment": "False"
  },
  {
    "Compound": "COc1cccc2c(N/N=C/c3ccco3)cc(C)nc12",
    "Class assignment": "False"
  },
  {
    "Compound": "COc1cc(C(=O)Nc2oc(-c3ccccc3)c(-c3ccccc3)c2C#N)cc(OC)c1OC",
    "Class assignment": "True"
  },
  {
    "Compound": "Cc1ccnc(N2CCN(C(=O)CSc3nc4ccccc4nc3N3CCCCC3)CC2)c1",
    "Class assignment": "True"
  }
]

* * *

Method notes: qHTS screen for small molecules that inhibit ELG1-dependent DNA repair in human embryonic kidney (HEK293T) cells expressing luciferase-tagged ELG1; further: nearly all actives have a fitted effect of over 55% in size
Assay setup: HEK293T ELG1-luciferase reporter, luminescence, 16 h, DNA damage induced by 5-fluorouridine; series mostly up to 46.1 µM
Out of some 330,000 compounds screened, about 7,700 (2.3%) were called active. Roughly 26% stayed inconclusive and do not appear here. The call rests on the fitted dose curve; in most records, active means well fitted inhibition curve with a large enough effect; inconclusive means small, poorly fitted or top-dose-only effect, or effect the other way; inactive means flat fitted curve, though single readings scatter. Many of the other results were omitted from the sample, so actives are more common in it than they were.
Possible outcomes: Y = active, N = inactive

[
  {
    "Compound": "O=C(Nc1ccccc1-c1ccccc1)c1cccs1",
    "Class assignment": "N"
  },
  {
    "Compound": "COc1ccc(-c2nn(C)c(=O)c3ccccc23)cc1CNC(=O)C1CCCCC1",
    "Class assignment": "Y"
  },
  {
    "Compound": "Cc1cccc(S(=O)(=O)N2CN(CC3CCCO3)c3nc4ccccc4nc32)c1 (stereo not given)",
    "Class assignment": "N"
  },
  {
    "Compound": "CCCCn1c(N)c(N(CCOC)C(=O)c2oc3ccc(OC)cc3c2C)c(=O)[nH]c1=O",
    "Class assignment": "N"
  },
  {
    "Compound": "COc1ccc(CCNC(=O)CSCc2ccc(Br)cc2)cc1OC",
    "Class assignment": "N"
  },
  {
    "Compound": "CCOc1ccc(N=Cc2c(O)n(-c3cccc(C)n3)c(=O)c3ccccc23)cc1",
    "Class assignment": "N"
  },
  {
    "Compound": "COc1ccccc1CNC(=O)C1CCN(c2nc3ccccc3o2)CC1",
    "Class assignment": "N"
  },
  {
    "Compound": "CCC(=O)Nc1ccc(S(=O)(=O)Nc2c(NC)c3ccccc3oc2=O)cc1",
    "Class assignment": "N"
  },
  {
    "Compound": "Cc1ccc2nnn(Cc3cccc(C(C)(C)C)c3O)c2c1",
    "Class assignment": "N"
  },
  {
    "Compound": "O=C(Nc1ccccc1-c1nnn(CC(=O)N2CCN(c3ccccc3)CC2)n1)c1cccs1",
    "Class assignment": "Y"
  }
]
